# test target: rP2 × 2R (Rattus norvegicus)
# Sequence (P49653 whole entry): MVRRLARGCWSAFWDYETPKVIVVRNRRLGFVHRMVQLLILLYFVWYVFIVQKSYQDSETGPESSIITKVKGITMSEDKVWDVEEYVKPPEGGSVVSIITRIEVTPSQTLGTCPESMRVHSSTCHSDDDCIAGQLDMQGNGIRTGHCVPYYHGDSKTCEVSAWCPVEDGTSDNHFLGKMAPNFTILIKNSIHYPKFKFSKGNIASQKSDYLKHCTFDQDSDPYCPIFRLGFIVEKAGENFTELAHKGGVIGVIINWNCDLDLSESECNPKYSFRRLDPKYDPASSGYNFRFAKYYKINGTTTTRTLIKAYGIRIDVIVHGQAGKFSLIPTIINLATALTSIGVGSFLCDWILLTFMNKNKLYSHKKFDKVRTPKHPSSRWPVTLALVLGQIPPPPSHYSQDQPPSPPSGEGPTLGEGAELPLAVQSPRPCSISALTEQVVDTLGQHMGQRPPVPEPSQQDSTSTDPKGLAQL
# assay name: cell-based
# experimental context: ATP EC50, NEM treatment + vehicle group; control before treatment (first ATP curve)
attribute measured: pEC50
A value of pEC50 is the negative decimal logarithm of a concentration given in moles per litre.

Write pEC50 of Nc1ncnc2c1ncn2[C@@H]1O[C@H](COP(=O)(O)OP(=O)(O)OP(=O)(O)O)[C@@H](O)[C@H]1O [ATP, adenosine triphosphate] ; system used: rP2 × 2R (Rattus norvegicus)
4.17
